Test system: MDA-MB-231
measurement.notes: NCI tumour cell line growth inhibition, 48 h
Active and inactive are the calls of the source. Cut-off read from the data, not from the text of the source: active = GI50 up to about 1.1 µM and inactive = higher.
Recorded measurements of GI50, one per entry

| compound | target.or.test.system | result |
| --- | --- | --- |
| O=C1C=CC(O)(C#CCO)C=C1 | MDA-MB-231 | 18.7 µM (inactive) |
| Cc1ccc(S(=O)(=O)N2CCN(S(=O)(=O)c3ccc(C)cc3)CCN(S(=O)(=O)c3ccc(C)cc3)Cc3cc(C#N)c(C#N)cc3CN(S(=O)(=O)c3ccc(C)cc3)CC2)cc1 | MDA-MB-231 | 31 µM (inactive) |

In: Output reported GI50 of the compound Cc1c(-c2ccccc2)c(C#N)c2nnn(-c3ccccc3)c(=O)n12 on MDA-MB-231.
Out: > 100 µM (inactive)

In: Output reported GI50 of the compound O=C1NC(=O)C(C(CC(=O)c2ccc(Cl)cc2)c2ccc(Cl)cc2)C(=O)N1 (centres undefined) on MDA-MB-231.
Out: > 100 µM (inactive)

In: Output reported GI50 of the compound S=C1N(c2ccc(Cl)cc2)C2=C(/N=N/c3ccccc3)C(=Nc3ccccc3S2)N1c1ccccn1 on MDA-MB-231.
Out: 12.8 µM (inactive)

In: Output reported GI50 of the compound CC1(C)[C@@H]2CC[C@]1(C)[C@H](OC(=O)CSC#N)C2 on MDA-MB-231.
Out: > 100 µM (inactive)

In: Output reported GI50 of the compound Cc1ccccc1C1CC(=O)CC(c2ccccc2C)C12C(=O)NC(=O)NC2=O (centres undefined) on MDA-MB-231.
Out: > 100 µM (inactive)

In: Output reported GI50 of the compound COC(=O)[C@]12CC3C=CC1N(C3)C(CBr)c1c2n(S(=O)(=O)c2ccccc2)c2ccccc12 (some centres undefined) on MDA-MB-231.
Out: 57.1 µM (inactive)

In: Output reported GI50 of the compound CC[N+](CC)(CC)/C(=N\S(=O)(=O)c1ccc(Cl)cc1)[N-]S(=O)(=O)c1cc(C)c(Cl)cc1S on MDA-MB-231.
Out: > 100 µM (inactive)

---

Test system: CCRF-CEM
measurement.notes: NCI tumour cell line growth inhibition, 48 h
Activity calls are given as the source filed them. Cut-off read from the data, not from the text of the source: active = GI50 up to about 1.1 µM and inactive = higher.
Recorded measurements of GI50, one per entry

Illustrative cases are given below, each with its answer.
| compound | GI50 |
| --- | --- |
| NC(=O)c1csc(CCCCCCc2nc(C(N)=O)cs2)n1 | > 43.5 µM (inactive) |
| CCCCC#COS(=O)(=O)c1ccc(C)cc1 | 30.5 µM (inactive) |
| Cc1ccc(NS(=O)(=O)c2cc(C(C)(C)C)ccc2OCCOCCOCCOc2ccc(C(C)(C)C)cc2S(=O)(=O)Nc2ccc(C)cc2)cc1 | > 100 µM (inactive) |
| O=C(Nc1ccccc1)N(C1=NCC(CI)S1)c1ccc(F)cc1F (stereo unspecified) | 15.3 µM (inactive) |

In: Please list GI50 recorded for the compound COc1cc(/C=C2\CCC(C)(CN(C)C)C2=O)cc(OC)c1OC (stereo unspecified)
Out: 52.4 µM (inactive)

In: Please list GI50 recorded for the compound C=C(CCCCCCCCC)CC(=O)SCCNC(=O)CCNC(=O)C(O)C(C)(C)COP(=O)(O)OP(=O)(O)OCC1OC(n2cnc3c(N)ncnc32)C(O)C1OP(=O)(O)O (stereo unspecified)
Out: > 70.6 µM (inactive)

---

# HCT-15: log10(GI50) values follow
# values: log10(GI50), units µM

| compound | log10(GI50) |
| --- | --- |
| CCCCCCCCCCCCCCCCCCOP(=O)([O-])OC1CC[N+](C)(C)CC1 [PERIFOSINE] | 0.39 |
| Cc1cn(C2CC(N(O)Cc3ccccc3)C(CO[Si](C)(C)C(C)(C)C)O2)c(=O)[nH]c1=O (centres undefined) | 1.57 |
| CC1CC(c2ccc([N+](=O)[O-])cc2)=Nc2ccccc2S1 (centres undefined) | 1.19 |
| CC1(C(=O)O)CCC2(C)CCC3(C)C(=CC(=O)C4C5(C)CCC(O)C(C)(C)C5CCC43C)C2C1 (centres undefined) | 1.54 |
| C=C1C(=O)OC2/C=C(/C)C3(O)OC(C)(CC(OC(=O)C(C)C)C12)CC3OC(C)=O (centres undefined) | 0.65 |

In: Output reported log10(GI50) of the compound Nc1ncnc2c1ncn2C1OC(CO)CC1O (centres undefined) on HCT-15.
Out: 1.25

---

Tested on: NCI-H460
measurement.notes: NCI tumour cell line growth inhibition, 48 h
Active and inactive are the calls of the source. Cut-off read from the data, not from the text of the source: active = GI50 up to about 1.1 µM and inactive = higher.
Recorded measurements of GI50, one per entry

| compound | GI50 |
| --- | --- |
| NC(CCc1ncc(C(=O)O)s1)C(=O)O (stereo unspecified) | > 100 µM (inactive) |
| COc1ccc(/N=N/N2CCCC2)cc1 | > 100 µM (inactive) |
| CCCCCCCCCCCC(=O)OCC(O)CO (stereo unspecified) [GLYCEROL MONOLAURATE] | 80.5 µM (inactive) |
| Cc1c(-c2ccccc2)c(C#N)c2nnn(-c3ccccc3)c(=O)n12 | 64.6 µM (inactive) |
| NC(=O)N/N=C(\C(=O)C(=O)Nc1ccc(Cl)c(C(F)(F)F)c1)c1nc2ccc(C(=O)c3ccccc3)cc2nc1O | > 100 µM (inactive) |
| CC1(C)CCc2cc3c(cc2O1)OCCC3=O | > 100 µM (inactive) |

In: Output reported GI50 of the compound CCCCCCCC/C=C\CCCCCCCC(=O)O on NCI-H460.
Out: 101 µM (inactive)

In: Output reported GI50 of the compound Nc1ncnc2c1ncn2CC(O)CO (stereo unspecified) on NCI-H460.
Out: > 100 µM (inactive)

In: Output reported GI50 of the compound O=C1NC(=O)C(C(CC(=O)c2ccc(Cl)cc2)c2ccc(Cl)cc2)C(=O)N1 (stereo unspecified) on NCI-H460.
Out: > 100 µM (inactive)

In: Output reported GI50 of the compound CC(=O)c1ccc2c(c1)c1c(C)c3c[n+](C)ccc3c(C)c1n2C on NCI-H460.
Out: 2.76 µM (inactive)

In: Output reported GI50 of the compound O=C1C=CC(O)(C#CCO)C=C1 on NCI-H460.
Out: 21.2 µM (inactive)

---

System: SK-MEL-2
measurement.notes: NCI tumour cell line growth inhibition, 48 h
Activity calls are given as the source filed them. Rule as the data show it: active = GI50 up to about 1.1 µM and inactive = higher.
recorded.endpoint: GI50

| compound | result |
| --- | --- |
| CCOC(=O)NN1C(=O)C(=P(c2ccccc2)(c2ccccc2)c2ccccc2)C(C(=O)OC)=C1C | > 100 µM (inactive) |

In: Output reported GI50 of the compound NCc1cccc(O)c1O on SK-MEL-2.
Out: > 100 µM (inactive)

In: Output reported GI50 of the compound CCSc1c2cc(OC)ccc2nc2ccc(OC)cc12 on SK-MEL-2.
Out: 18.8 µM (inactive)

In: Output reported GI50 of the compound O=C1Oc2ccccc2N/C1=C/C(=O)c1ccc([N+](=O)[O-])cc1 on SK-MEL-2.
Out: > 100 µM (inactive)

In: Output reported GI50 of the compound O=CC(O)C(O)C(O)C(O)COP(=O)(O)Cc1ccccc1 (stereo not given) on SK-MEL-2.
Out: > 10 µM (inactive)

---

Tested on: SF-539
measurement.notes: NCI tumour cell line growth inhibition, 48 h
Calls of active or inactive are those of the source. No stated cut-off is given here; in the data, active = GI50 up to about 1.1 µM and inactive = higher. Bridge positions count the residues as written; N and C are the ends. Square brackets hold non-standard residues; d marks the D form. Peptide text beside a SMILES is read from it. * marks the point of attachment. ξ: configuration not given here. NMeN = CN[C@@H](CC(N)=O)C(=O)O; NMeV = CN[C@H](C(=O)O)C(C)C; ξNMeV = CNC(C(=O)O)C(C)C; Cbz = O=C(OCc1ccccc1)*; Dab = NCC[CH](N)C(=O)O; Boc = CC(C)(C)OC(=O)*; ξNMeA = CNC(C)C(=O)O; Bn = c1ccc(C*)cc1
Return exactly one item of y (active), n (inactive)

Worked examples, 8 compounds total:
| compound | class.name |
| --- | --- |
| COc1cc(CCNC2=CC(=O)c3ncccc3C2=O)ccc1O | n |
| CC(C)CC1NC(=O)C(Cc2ccccc2)NC(=O)C(Cc2ccccc2)NC(=O)C(NC(=O)C(Cc2ccc(OCc3ccccc3)cc2)NC(=O)OCc2ccccc2)CCNC1=O (stereo not drawn) (Cbz-Y(Bn)[Dab]FFL; lactam 2-C; configuration not given here) | n |
| COC(=O)CCc1cc(OC)c(O)c(C(Cc2ccc(OC)c(OC)c2)C(=O)OC)c1 (stereo not drawn) | n |
| CN(C)C(=O)/C=C/c1c[nH]c(=O)[nH]c1=O | n |
| O=C1c2ccccc2C(=O)N1CCn1nc(-c2ccccc2)cc(-c2ccccc2)c1=O | n |
| CCOC(=O)c1cc(NC(=O)c2ccccc2)c(=O)n2c(cc3c(Cl)cccc32)c1O | n |
| COC(=O)C(C)N(C)C(=O)[C@H](CC(N)=O)N(C)C(=O)[C@@H]1CCCN1C(=O)[C@H](C(C)C)N(C)C(=O)C(C(C)C)N(C)C(=O)[C@@H](NC(=O)OC(C)(C)C)C(C)C (stereo partly drawn) (Boc-V[ξNMeV][NMeV]P[NMeN][ξNMeA]-OMe) | n |
| C=C1C[C@]23C[C@@]1(O)CC[C@H]2[C@@]12C=C[C@H](O)[C@@](C)(C(=O)O1)[C@H]2[C@@H]3C(=O)O | n |

# input for lookup
In: I'd appreciate the recorded outcome for O=C1C2Cc3ccccc3CN2C(=O)N1CN1CCN(CN2C(=O)C3Cc4ccccc4CN3C2=O)CC1 (stereo not drawn) from this test.
Out: n
